- EXPERIMENTAL_SYSTEM: CYP3A4 (Homo sapiens)
- Construct: Eurofins Panlabs, Inc. (contract laboratory)
- ASSAY_OVERVIEW: Cytochrome P450 inhibition assay, CYP3A4
- Format: in vitro ADME
- SETTINGS: 1.0E-07 M
MEASUREMENT_KIND: inhibition at 100 nM

Q: Please give the measured inhibition at 100 nM for this compound: O=C(N[C@H]1CC[C@@]2(O)[C@H]3Cc4ccc(O)c5c4[C@@]2(CCN3CC2CC2)[C@H]1O5)c1nccs1 [Compound 6]
Result: 10.1%

====

- EXPERIMENTAL_SYSTEM: KOR (Mus musculus, UniProt P33534)
- ASSAY_OVERVIEW: KOR [35S]GTPγS functional assay
# EC50 per record follows
Numeric answer only, unit nM assumed.

Worked set:
- COMPOUND: "O=C(N[C@@H]1CC[C@@]2(O)[C@H]3Cc4ccc(O)c5c4[C@@]2(CCN3CC2CC2)[C@H]1O5)c1nccs1 [Compound 14]"
  UNIT_OF_MEASURE: "nM"
  EC50: 9.67
- COMPOUND: "O=C(N[C@H]1CC[C@@]2(O)[C@H]3Cc4ccc(O)c5c4[C@@]2(CCN3CC2CC2)[C@H]1O5)c1nccs1 [Compound 6]"
  UNIT_OF_MEASURE: "nM"
  EC50: 3.83

Q: Please give the measured EC50 for this compound: O=C(N[C@@H]1CC[C@@]2(O)[C@H]3Cc4ccc(O)c5c4[C@@]2(CCN3CC2CC2)[C@H]1O5)c1ccns1 [Compound 9]
Result: 7.06

====

- EXPERIMENTAL_SYSTEM: MOR (Mus musculus, UniProt P42866)
- Construct: expressed in transfected cells; host or cells: CHO (MOR-CHO), membrane preparation
- ASSAY_OVERVIEW: MOR [35S]GTPγS functional assay
- Type: biochemical
# EC50 per record follows
Numeric answer only, unit nM assumed.

- COMPOUND: "O=C(Cc1nccs1)N[C@@H]1CC[C@@]2(O)[C@H]3Cc4ccc(O)c5c4[C@@]2(CCN3CC2CC2)[C@H]1O5 [Compound 15]"
  EXPERIMENTAL_SYSTEM: "MOR (Mus musculus, UniProt P42866)"
  MEASURED_VALUE: 0.78
- COMPOUND: "O=C(N[C@H]1CC[C@@]2(O)[C@H]3Cc4ccc(O)c5c4[C@@]2(CCN3CC2CC2)[C@H]1O5)c1nccs1 [Compound 6]"
  EXPERIMENTAL_SYSTEM: "MOR (Mus musculus, UniProt P42866)"
  MEASURED_VALUE: 2.16
- COMPOUND: "O=C(Cc1nccs1)N[C@H]1CC[C@@]2(O)[C@H]3Cc4ccc(O)c5c4[C@@]2(CCN3CC2CC2)[C@H]1O5 [Compound 7]"
  EXPERIMENTAL_SYSTEM: "MOR (Mus musculus, UniProt P42866)"
  MEASURED_VALUE: 3.87

Q: Please give the measured EC50 for this compound: O=C(CCc1nccs1)N[C@H]1CC[C@@]2(O)[C@H]3Cc4ccc(O)c5c4[C@@]2(CCN3CC2CC2)[C@H]1O5 [Compound 8]
Result: 3.4

Q: Please give the measured EC50 for this compound: O=C(N[C@H]1CC[C@@]2(O)[C@H]3Cc4ccc(O)c5c4[C@@]2(CCN3CC2CC2)[C@H]1O5)c1ccns1 [Compound 1]
Result: 4.93

Q: Please give the measured EC50 for this compound: O=C(Cc1cncs1)N[C@H]1CC[C@@]2(O)[C@H]3Cc4ccc(O)c5c4[C@@]2(CCN3CC2CC2)[C@H]1O5 [Compound 4]
Result: 5.87

Q: Please give the measured EC50 for this compound: O=C(CCc1cncs1)N[C@H]1CC[C@@]2(O)[C@H]3Cc4ccc(O)c5c4[C@@]2(CCN3CC2CC2)[C@H]1O5 [Compound 5]
Result: 2.76

Q: Please give the measured EC50 for this compound: O=C(CCc1nccs1)N[C@@H]1CC[C@@]2(O)[C@H]3Cc4ccc(O)c5c4[C@@]2(CCN3CC2CC2)[C@H]1O5 [Compound 16]
Result: 1.75

Q: Please give the measured EC50 for this compound: O=C(N[C@H]1CC[C@@]2(O)[C@H]3Cc4ccc(O)c5c4[C@@]2(CCN3CC2CC2)[C@H]1O5)c1cncs1 [Compound 3]
Result: 2.77

Q: Please give the measured EC50 for this compound: O=C(N[C@@H]1CC[C@@]2(O)[C@H]3Cc4ccc(O)c5c4[C@@]2(CCN3CC2CC2)[C@H]1O5)c1nccs1 [Compound 14]
Result: 0.56

====

# Emax per record follows
- EXPERIMENTAL_SYSTEM: MOR (Mus musculus, UniProt P42866)
- Construct: expressed in transfected cells; host or cells: CHO (MOR-CHO), membrane preparation
- ASSAY_OVERVIEW: MOR [35S]GTPγS functional assay
- Assay type: biochemical
- SETTINGS: read-out: MOR [35S]GTPγS Binding %Emax of DAMGO, relative to 3 μM DAMGO; mean ± SEM
- Protocol: The [^35S]GTPγS functional assay was used to assess the efficacy of compounds at the MOR, KOR, and DOR. […] After incubation, bound radioactivity was separated by filtration through GF/B glass fiber filters and measured by liquid scintillation counting. […] Net stimulated [35S]GTPγS binding was calculated as agonist-stimulated minus basal binding.
Numeric answer only, unit % assumed.

Worked set:
- SUBSTANCE_SMILES: "O=C(CCc1cncs1)N[C@@H]1CC[C@@]2(O)[C@H]3Cc4ccc(O)c5c4[C@@]2(CCN3CC2CC2)[C@H]1O5"
  Emax / %: 10.5
- SUBSTANCE_SMILES: "O=C(N[C@H]1CC[C@@]2(O)[C@H]3Cc4ccc(O)c5c4[C@@]2(CCN3CC2CC2)[C@H]1O5)c1cncs1"
  Emax / %: 15.9
- SUBSTANCE_SMILES: "O=C(N[C@@H]1CC[C@@]2(O)[C@H]3Cc4ccc(O)c5c4[C@@]2(CCN3CC2CC2)[C@H]1O5)c1cncs1"
  Emax / %: 13.7

Q: Please give the measured Emax for this compound: O=C(CCc1nccs1)N[C@H]1CC[C@@]2(O)[C@H]3Cc4ccc(O)c5c4[C@@]2(CCN3CC2CC2)[C@H]1O5
Result: 13.4

Q: Please give the measured Emax for this compound: O=C(N[C@@H]1CC[C@@]2(O)[C@H]3Cc4ccc(O)c5c4[C@@]2(CCN3CC2CC2)[C@H]1O5)c1ccns1
Result: 9.66

Q: Please give the measured Emax for this compound: O=C(Cc1cncs1)N[C@H]1CC[C@@]2(O)[C@H]3Cc4ccc(O)c5c4[C@@]2(CCN3CC2CC2)[C@H]1O5
Result: 17

Q: Please give the measured Emax for this compound: O=C(CCc1cncs1)N[C@H]1CC[C@@]2(O)[C@H]3Cc4ccc(O)c5c4[C@@]2(CCN3CC2CC2)[C@H]1O5
Result: 10.7

====

- EXPERIMENTAL_SYSTEM: CYP2A6 (Homo sapiens, UniProt P11509)
- Construct: Eurofins Panlabs, Inc. (contract laboratory)
- ASSAY_OVERVIEW: Cytochrome P450 inhibition assay, CYP2A6
- Assay type: in vitro ADME
- SETTINGS: 1.0E-07 M
MEASUREMENT_KIND: inhibition at 100 nM (%)
Numeric answer only, unit % assumed.

Q: Please give the measured inhibition at 100 nM for this compound: O=C(N[C@H]1CC[C@@]2(O)[C@H]3Cc4ccc(O)c5c4[C@@]2(CCN3CC2CC2)[C@H]1O5)c1nccs1
Result: 6.3

====

- ASSAY_OVERVIEW: In vitro metabolic stability in human liver microsomes
- Format: in vitro ADME
- SETTINGS: 1.0E-07 M
- Experimental: The ADMET assessment including the hERG inhibitory activity, plasma protein binding, in vitro metabolic stability profile, CYP inhibitory effect and mutagenic evaluation were conducted by Eurofins Panlabs, Inc.[21],[61],[69]−[71]
MEASUREMENT_KIND: half-life at 100 nM

Q: Please give the measured half-life at 100 nM for this compound: O=C(N[C@H]1CC[C@@]2(O)[C@H]3Cc4ccc(O)c5c4[C@@]2(CCN3CC2CC2)[C@H]1O5)c1nccs1 [Compound 6]
Result: > 1 h

====

- EXPERIMENTAL_SYSTEM: κ opioid receptor (KOR) (Mus musculus)
- Construct: expressed in transfected cells; host or cells: CHO (mKOR-CHO), membrane preparation
- ASSAY_OVERVIEW: Competitive radioligand binding assay, KOR
- SETTINGS: ratio of Ki values
- Description: The competition binding assay was performed using monoclonal mouse opioid receptors expressed in CHO cell lines (monoclonal human δ opioid receptor was used for the DOR assay). The bound radioligand was separated using a Brandel harvester. Specific binding to the MOR, KOR, and DOR was calculated by subtracting the binding observed in the presence of 5 μM naltrexone, U50488, and SNC80, respectively, from the binding in their absence. […]
# Selectivity κ/μ per record follows

Worked set:
- SUBSTANCE_SMILES: "O=C(Cc1cncs1)N[C@@H]1CC[C@@]2(O)[C@H]3Cc4ccc(O)c5c4[C@@]2(CCN3CC2CC2)[C@H]1O5"
  MEASURED_VALUE: 2
- SUBSTANCE_SMILES: "O=C(CCc1cncs1)N[C@@H]1CC[C@@]2(O)[C@H]3Cc4ccc(O)c5c4[C@@]2(CCN3CC2CC2)[C@H]1O5"
  MEASURED_VALUE: 2
- SUBSTANCE_SMILES: "O=C(Cc1cncs1)N[C@H]1CC[C@@]2(O)[C@H]3Cc4ccc(O)c5c4[C@@]2(CCN3CC2CC2)[C@H]1O5"
  MEASURED_VALUE: 4
- SUBSTANCE_SMILES: "O=C(N[C@@H]1CC[C@@]2(O)[C@H]3Cc4ccc(O)c5c4[C@@]2(CCN3CC2CC2)[C@H]1O5)c1nccs1"
  MEASURED_VALUE: 2
- SUBSTANCE_SMILES: "O=C(N[C@H]1CC[C@@]2(O)[C@H]3Cc4ccc(O)c5c4[C@@]2(CCN3CC2CC2)[C@H]1O5)c1ccns1"
  MEASURED_VALUE: 4
- SUBSTANCE_SMILES: "O=C(N[C@@H]1CC[C@@]2(O)[C@H]3Cc4ccc(O)c5c4[C@@]2(CCN3CC2CC2)[C@H]1O5)c1ccns1"
  MEASURED_VALUE: 4
- SUBSTANCE_SMILES: "O=C(N[C@@H]1CC[C@@]2(O)[C@H]3Cc4ccc(O)c5c4[C@@]2(CCN3CC2CC2)[C@H]1O5)c1cncs1"
  MEASURED_VALUE: 3
- SUBSTANCE_SMILES: "O=C(Cc1nccs1)N[C@@H]1CC[C@@]2(O)[C@H]3Cc4ccc(O)c5c4[C@@]2(CCN3CC2CC2)[C@H]1O5"
  MEASURED_VALUE: 5
- SUBSTANCE_SMILES: "O=C(N[C@H]1CC[C@@]2(O)[C@H]3Cc4ccc(O)c5c4[C@@]2(CCN3CC2CC2)[C@H]1O5)c1nccs1"
  MEASURED_VALUE: 5
- SUBSTANCE_SMILES: "O=C(Cc1ccns1)N[C@H]1CC[C@@]2(O)[C@H]3Cc4ccc(O)c5c4[C@@]2(CCN3CC2CC2)[C@H]1O5"
  MEASURED_VALUE: 3

Q: Reported Selectivity κ/μ for κ opioid receptor (KOR) (Mus musculus), given O=C(CCc1cncs1)N[C@H]1CC[C@@]2(O)[C@H]3Cc4ccc(O)c5c4[C@@]2(CCN3CC2CC2)[C@H]1O5 ?
Result: 3

Q: Reported Selectivity κ/μ for κ opioid receptor (KOR) (Mus musculus), given O=C(N[C@H]1CC[C@@]2(O)[C@H]3Cc4ccc(O)c5c4[C@@]2(CCN3CC2CC2)[C@H]1O5)c1cncs1 ?
Result: 3
